For each of the compounds below, state its pEC50.
Molecular target: human S1PR5 receptor (Homo sapiens, UniProt Q9H228)
Construct: host or cells: CHO-K1
Sequence (Q9H228 whole entry): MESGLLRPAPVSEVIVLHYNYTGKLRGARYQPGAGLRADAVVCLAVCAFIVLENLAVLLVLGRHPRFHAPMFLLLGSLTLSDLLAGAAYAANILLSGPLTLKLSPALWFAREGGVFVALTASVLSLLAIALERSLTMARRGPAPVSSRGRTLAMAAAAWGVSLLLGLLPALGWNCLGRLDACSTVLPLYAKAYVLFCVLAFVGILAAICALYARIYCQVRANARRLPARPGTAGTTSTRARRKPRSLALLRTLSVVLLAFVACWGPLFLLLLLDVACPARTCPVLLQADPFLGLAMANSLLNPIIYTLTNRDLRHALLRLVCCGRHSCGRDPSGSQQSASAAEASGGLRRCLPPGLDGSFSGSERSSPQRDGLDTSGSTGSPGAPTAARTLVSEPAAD
Test: Method 1: intracellular Ca2+ release (FLIPR, Calcium 5) in recombinant CHO-K1 cells
Format: cell-based
Settings: agonist potency, determined with method 1 (symbols A-D); read-out: S1P5 EC50 range
Method: Agonistic activity was measured using two different methods, described below. Method 1. Intracellular Ca^2+ Release Agonist potency and intrinsic activity was assessed by measurement of intracellular Ca^2+ release. […]
pEC50: −log10 of the molar value.

Solved entries (count: 3):
| Compound | Reported |
| --- | --- |
| O=C(O)CCN1CCc2nc(-c3ccc(OCc4cccc(OC(F)F)c4)cc3)ccc2C1 | > 8.00 |
| Cc1ccccc1COc1ccc(-c2ncc3c(n2)CCN(CC(C)CC(=O)O)C3)cc1C (centres unmarked) | > 8.00 |
| O=C(O)CN1CCc2nc(-c3ccc(OCc4cccc(F)c4F)cc3)ncc2C1 | 7.00 to 8.00 |

Quick request: pEC50 for each listed item, please.
1. CC(CC(=O)O)CN1CCc2nc(-c3ccc(OCc4ccccc4F)cc3)ncc2C1 (centres unmarked)
2. O=C(O)C1(CCN2CCc3nc(-c4ccc(OCc5ccc(Cl)cc5)cc4)ncc3C2)CC1

1. > 8.00
2. 6.00 to 7.00

List the reported pEC50 of each compound below.
1. Cc1c(COc2ccc(-c3ncc4c(n3)CCN(CC(C)CC(=O)O)C4)cc2)cccc1C(F)(F)F (centres unmarked)
2. O=C(O)CN1CCc2nc(-c3ccc(OCc4ccc(Cl)c(Cl)c4)cc3)ncc2C1
3. CC(C)(C)c1ccc(COc2ccc(-c3ccc4c(n3)CCN(CCC(=O)O)C4)cc2)cc1

["> 8.00", "7.00 to 8.00", "> 8.00"]

* * *

Please respond with reported EC50 for every item in the list.
target: human S1PR5 receptor (Homo sapiens, UniProt Q9H228); construct: host or cells: CHO-K1; experiment: Method 1: intracellular Ca2+ release (FLIPR, Calcium 5) in recombinant CHO-K1 cells; format: cell-based; conditions: agonist potency, determined with method 1 (symbols A-D); read-out: S1P5 EC50 range
Counter-ions that a name gives are not always drawn.

Answered cases to consult:
| Molecule | EC50 |
| --- | --- |
| O=C(O)CCN1CCc2nc(-c3ccc(OCc4ccc(C(F)(F)F)cc4)cc3)ccc2C1 [Compound 152] | < 10 nM |
| O=C(O)C1CC(N2CCc3nc(C#Cc4ccc(OCc5ccccc5)cc4)ccc3C2)C1 (stereo not drawn) [Compound 125] | 100 to 1000 nM |
| O=C(O)CCN1CCc2nc(-c3ccc(OCc4ccccc4OC(F)F)cc3)ncc2C1 [Compound 90] | 10 to 100 nM |
| CC(CC(=O)O)CN1CCc2nc(-c3ccc(OCc4ccc(Cl)cc4)cc3F)ncc2C1 (stereo not drawn) [Compound 236] | < 10 nM |
| O=C(O)CCN1CCc2nc(-c3ccc(OCc4cccc(F)c4)cc3)ncc2C1 [Compound 68] | 10 to 100 nM |
| O=C(O)CC1CC(N2CCc3nc(-c4ccc(OCc5ccc(Cl)c(Cl)c5)cc4)ncc3C2)C1 (stereo not drawn) [Compound 4] | 100 to 1000 nM |

For each listed entry, give its EC50.
1. O=C(O)CCN1CCc2nc(-c3ccc(OCc4cccc(OC(F)(F)F)c4)cc3)ncc2C1 [Compound 82]
2. Cc1cc(-c2ncc3c(n2)CCN(CC(C)CC(=O)O)C3)ccc1OCc1ccccc1 (stereo not drawn) [Compound 251]
3. Cc1cc(-c2ccc3c(n2)CCN(CC(=O)O)C3)ccc1OCc1ccccc1 [Compound 111]
4. O=C(O)CC1CC(N2CCc3nc(-c4ccc(OCc5ccc(Cl)cc5)cc4)ncc3C2)C1 (stereo not drawn) [Compound 2]
5. CC(CC(=O)O)CN1CCc2nc(-c3ccc(C(F)Cc4ccc(Cl)cc4F)cc3)ncc2C1 (stereo not drawn) [Compound 253]
6. O=C(O)CCN1CCc2nc(-c3ccc(OCc4cccc(Cl)c4)cc3)ncc2C1 [Compound 72]
7. Cc1cc(-c2ncc3c(n2)CCN(CC(C)CC(=O)O)C3)ccc1OCc1cccc(C(F)(F)F)c1C (stereo not drawn) [Compound 273]

1: < 10 nM; 2: < 10 nM; 3: 100 to 1000 nM; 4: 100 to 1000 nM; 5: < 10 nM; 6: < 10 nM; 7: 10 to 100 nM

Fill in EC50 for each of the 3 molecules listed.
1. CC(CCC(=O)O)N1CCc2nc(-c3ccc(OCc4cccc(Cl)c4)cc3)ncc2C1 (stereo not drawn) [Compound 65]
2. O=C(O)C1CCC(N2CCc3nc(-c4ccc(OCc5cccc(Cl)c5)cc4)ncc3C2)C1 (stereo not drawn) [Compound 288, hydrochloride]
3. CC(CC(=O)O)CN1CCc2nc(-c3ccc(OCc4cccc(Cl)c4)cc3F)ncc2C1 (stereo not drawn) [Compound 232]

["10 to 100 nM", "100 to 1000 nM", "< 10 nM"]

# batch size: 2; output EC50 per entry
1. CCc1cccc(Cl)c1COc1ccc(-c2ncc3c(n2)CCN(CC(C)C(=O)O)C3)cc1 (stereo not drawn) [Compound 18]
2. Cc1cccc(COc2ccc(-c3ncc4c(n3)CCN(CC(C)CC(=O)O)C4)cc2C)c1 (stereo not drawn) [Compound 320]

1: 10 to 100 nM; 2: 1000 to 10000 nM
